# residual activity per record follows
Target system: CDK9/cyclin T1 (Homo sapiens) (UniProt O60563+P50750)
Condition notes: at 1 µM

Smiles data | Units of measure | residual activity
Nc1n[nH]c2nc3ccccc3nc12 | % | 59
O=C1NC(=O)C(c2cn(CCCn3ccnc3)c3ccccc23)=C1Nc1ccccc1 | % | 14
CC(C)(C)n1nc(Cc2cccc3ccccc23)c2c(N)ncnc21 | % | 101
O=S(=O)(c1cccc2cnccc12)N1CCCNCC1 | % | 81
CC(C)c1nn(-c2c(Cl)cccc2Cl)c2nc(Cc3ccc(OCCO)cc3)[nH]c(=O)c12 | % | 2
NC(=O)Nc1sc(-c2ccc(F)cc2)cc1C(N)=O | % | 89

----------
Target system: Phosphorylase b kinase gamma catalytic chain, liver/testis isoform (Homo sapiens)
Condition notes: at 1 µM

Smiles data | residual activity [%]
O=C1Cc2c([nH]c3ccc(Br)cc23)-c2ccccc2N1 | 120
O=C1NC(=O)C(c2cn(CCCO)c3ncccc23)=C1c1cnccn1 | 97
NC(=O)Nc1sc(-c2ccc(F)cc2)cc1C(N)=O | 105
O=c1cc(N2CCOCC2)oc2c1ccc1ccccc12 | 90
COc1cc2nccc(Oc3ccc(NC(=S)NC(=O)c4ccccc4C)cc3)c2cc1OC | 61
O=C(CCCc1ccc(-c2ccccc2F)cc1)Nc1ccc(O)cc1 | 109
CC(C)[C@H](CO)Nc1nc(Nc2cc(N)cc(Cl)c2)c2ncn(C(C)C)c2n1 | 119

----------
Target system: Calcium/calmodulin-dependent protein kinase type II subunit delta (Homo sapiens) (UniProt Q13557)
Sequence (Q13557 whole entry): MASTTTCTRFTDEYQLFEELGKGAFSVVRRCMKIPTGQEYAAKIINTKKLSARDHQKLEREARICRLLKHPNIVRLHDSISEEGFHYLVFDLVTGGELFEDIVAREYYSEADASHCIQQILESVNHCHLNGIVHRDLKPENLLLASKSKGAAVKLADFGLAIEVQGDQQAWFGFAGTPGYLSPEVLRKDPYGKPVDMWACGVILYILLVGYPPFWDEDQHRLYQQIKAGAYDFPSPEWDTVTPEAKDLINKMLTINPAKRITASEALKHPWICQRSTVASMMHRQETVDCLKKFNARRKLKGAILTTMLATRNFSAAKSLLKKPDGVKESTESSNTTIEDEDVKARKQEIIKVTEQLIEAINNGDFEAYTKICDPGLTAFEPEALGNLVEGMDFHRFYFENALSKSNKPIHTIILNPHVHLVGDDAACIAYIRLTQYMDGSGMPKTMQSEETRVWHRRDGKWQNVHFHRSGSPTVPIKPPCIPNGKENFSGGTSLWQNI
Condition notes: at 10 µM
// NB: equality with 30% counts as n; only residual activity strictly below is y

Smiles data | Class assignment
Cc1cc(C)c(/C=C2\C(=O)Nc3ccccc32)[nH]1 | y
NC(=O)Nc1sc(-c2ccc(F)cc2)cc1C(N)=O | n
NCCNc1ncc(C(N)=O)c(Nc2cccc(C(F)(F)F)c2)n1 | y
O=C(CCCc1ccc(-c2ccccc2F)cc1)Nc1ccc(O)cc1 | n
Cn1c2ccccc2c2c3c(c4c5ccccc5n(CCC#N)c4c21)CNC3=O | y
NC(=O)c1ccc(-c2nc(-c3ccc4c(c3)OCCO4)c(-c3ccccn3)[nH]2)cc1 | n

----------
# residual activity per record follows
Target system: Ephrin type-B receptor 3 (Homo sapiens) (UniProt P54753)
Sequence (P54753 whole entry): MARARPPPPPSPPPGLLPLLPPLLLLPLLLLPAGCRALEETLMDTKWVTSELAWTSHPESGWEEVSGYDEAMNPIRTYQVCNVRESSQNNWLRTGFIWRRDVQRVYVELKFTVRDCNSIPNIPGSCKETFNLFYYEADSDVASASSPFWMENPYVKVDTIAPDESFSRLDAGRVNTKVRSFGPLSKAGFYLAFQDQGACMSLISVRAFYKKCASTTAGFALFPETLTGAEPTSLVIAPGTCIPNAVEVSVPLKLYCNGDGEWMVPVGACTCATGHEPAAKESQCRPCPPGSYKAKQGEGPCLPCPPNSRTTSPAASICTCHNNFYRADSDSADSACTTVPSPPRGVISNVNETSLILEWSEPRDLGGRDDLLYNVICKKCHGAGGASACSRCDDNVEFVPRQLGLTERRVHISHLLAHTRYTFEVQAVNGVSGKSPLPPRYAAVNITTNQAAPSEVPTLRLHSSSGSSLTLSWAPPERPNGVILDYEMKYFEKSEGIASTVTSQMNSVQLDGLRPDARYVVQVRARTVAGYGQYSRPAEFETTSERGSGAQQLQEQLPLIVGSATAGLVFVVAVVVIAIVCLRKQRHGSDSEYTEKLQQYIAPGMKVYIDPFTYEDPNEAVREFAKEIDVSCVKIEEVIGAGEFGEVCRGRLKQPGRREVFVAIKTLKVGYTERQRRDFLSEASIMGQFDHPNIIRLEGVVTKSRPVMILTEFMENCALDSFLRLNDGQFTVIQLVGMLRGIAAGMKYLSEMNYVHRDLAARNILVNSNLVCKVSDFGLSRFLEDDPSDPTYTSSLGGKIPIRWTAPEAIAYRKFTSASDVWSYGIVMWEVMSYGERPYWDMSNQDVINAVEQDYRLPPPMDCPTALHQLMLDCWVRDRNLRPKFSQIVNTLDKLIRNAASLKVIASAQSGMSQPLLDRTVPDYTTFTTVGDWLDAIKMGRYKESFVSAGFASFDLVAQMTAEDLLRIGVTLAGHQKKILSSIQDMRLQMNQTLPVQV
Condition notes: at 1 µM
Description: Millipore: Percentage of residual kinase activity of EPHB3 at 1uM relative to control. Control inhibitor: PP2 at 30.0uM. Buffer: 8 mM MOPS pH 7.0, 0.2 mM EDTA, 10 mM MnCl2

Smiles data | Units of measure | residual activity
COc1ccc(CNC(=O)Nc2ncc([N+](=O)[O-])s2)cc1 | % | 117
O=C(c1ccccc1)c1ccc(N2CCOCC2)cc1O | % | 115
O=C1Nc2ccc(Cl)cc2/C1=C/c1cc(Cl)c(O)c(Cl)c1 | % | 113
O=C(Nc1nc2ccccc2n1CCN1CCOCC1)c1cccc([N+](=O)[O-])c1 | % | 110
Nc1ncnc2c1c(-c1ccc(Oc3ccccc3)cc1)cn2C1CCCC1 | % | 104
Nc1ncnc2[nH]nc(Nc3ccc(F)cc3)c12 | % | 123
CCCC(=O)Oc1ccc2[nH]c(C(=O)c3cc4ccccc4[nH]3)cc2c1 | % | 102
COc1ccc(COc2ccc(Cc3cnc(N)nc3N)cc2OC)cc1 | % | 114
CN([C@@H](Cc1ccc(OS(=O)(=O)c2cccc3cnccc23)cc1)C(=O)N1CCN(c2ccccc2)CC1)S(=O)(=O)c1cccc2cnccc12 | % | 116
NC(=O)Nc1sc(-c2ccc(F)cc2)cc1C(N)=O | % | 117

----------
# residual activity per record follows
Target system: Serine/threonine-protein kinase BRSK1 (Homo sapiens)
Condition notes: at 1 µM

Compound | residual activity (%)
CC(C)c1nn(-c2c(Cl)cccc2Cl)c2nc(Cc3ccc(OCCO)cc3)[nH]c(=O)c12 | 70
O=C(CCCc1ccc(-c2ccccc2F)cc1)Nc1ccc(O)cc1 | 102
CSc1nc(-c2ccc(F)cc2)c(-c2ccnc(NC(C)c3ccccc3)c2)[nH]1 (stereo not drawn) | 100

----------
Target system: Angiopoietin-1 receptor (Homo sapiens) (UniProt Q02763)
Sequence (Q02763 whole entry): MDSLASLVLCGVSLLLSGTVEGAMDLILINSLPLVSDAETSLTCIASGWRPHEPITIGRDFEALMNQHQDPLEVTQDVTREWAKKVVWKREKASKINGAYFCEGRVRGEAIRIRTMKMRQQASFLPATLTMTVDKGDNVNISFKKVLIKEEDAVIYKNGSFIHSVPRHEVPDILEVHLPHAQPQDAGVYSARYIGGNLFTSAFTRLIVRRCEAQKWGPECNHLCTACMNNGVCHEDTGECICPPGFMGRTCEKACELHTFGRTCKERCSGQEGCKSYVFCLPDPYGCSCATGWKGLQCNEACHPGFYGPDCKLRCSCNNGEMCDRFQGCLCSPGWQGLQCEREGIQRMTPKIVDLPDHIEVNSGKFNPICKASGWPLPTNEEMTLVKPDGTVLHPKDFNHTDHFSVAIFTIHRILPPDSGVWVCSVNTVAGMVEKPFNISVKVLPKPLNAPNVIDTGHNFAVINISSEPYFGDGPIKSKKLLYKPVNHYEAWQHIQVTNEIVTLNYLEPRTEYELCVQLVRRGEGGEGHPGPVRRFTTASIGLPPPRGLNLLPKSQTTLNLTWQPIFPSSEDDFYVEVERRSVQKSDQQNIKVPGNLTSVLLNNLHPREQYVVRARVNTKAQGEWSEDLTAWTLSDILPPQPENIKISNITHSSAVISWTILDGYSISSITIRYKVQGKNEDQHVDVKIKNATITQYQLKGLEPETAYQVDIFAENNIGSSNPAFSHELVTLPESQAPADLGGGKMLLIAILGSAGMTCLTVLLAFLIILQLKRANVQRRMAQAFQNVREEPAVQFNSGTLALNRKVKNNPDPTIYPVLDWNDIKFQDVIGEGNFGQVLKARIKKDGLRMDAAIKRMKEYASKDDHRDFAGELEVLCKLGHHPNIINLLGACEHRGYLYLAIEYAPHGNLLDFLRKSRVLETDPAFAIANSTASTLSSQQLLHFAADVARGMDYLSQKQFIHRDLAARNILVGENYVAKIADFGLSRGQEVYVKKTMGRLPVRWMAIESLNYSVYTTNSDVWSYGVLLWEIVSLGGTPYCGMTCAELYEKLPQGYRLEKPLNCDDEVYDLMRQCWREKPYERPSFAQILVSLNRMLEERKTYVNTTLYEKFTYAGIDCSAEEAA
Condition notes: at 1 µM
# residual activity per record follows
Quantity: residual activity (%)

Smiles data | Target system | Quantity | Result
NCCNc1ncc(C(N)=O)c(Nc2cccc(C(F)(F)F)c2)n1 | Angiopoietin-1 receptor (Homo sapiens) (UniProt Q02763) | residual activity | 100
Cc1cc(C)c(/C=C2\C(=O)Nc3ccccc32)[nH]1 | Angiopoietin-1 receptor (Homo sapiens) (UniProt Q02763) | residual activity | 74
CCN(CC)CCNC(=O)c1c(C)[nH]c(/C=C2\C(=O)Nc3ccc(Cl)cc32)c1C | Angiopoietin-1 receptor (Homo sapiens) (UniProt Q02763) | residual activity | 56
NC(=O)Nc1sc(-c2ccc(F)cc2)cc1C(N)=O | Angiopoietin-1 receptor (Homo sapiens) (UniProt Q02763) | residual activity | 82
CN(C)S(=O)(=O)c1ccc2c(c1)/C(=C/c1cc3c([nH]1)CCCC3)C(=O)N2 | Angiopoietin-1 receptor (Homo sapiens) (UniProt Q02763) | residual activity | 45
Fc1ccc(-c2nc3n(c2-c2ccncc2)CCS3)cc1 | Angiopoietin-1 receptor (Homo sapiens) (UniProt Q02763) | residual activity | 128
O=C(O)/C=C/c1cc(Br)c(Br)c(Br)c1Br | Angiopoietin-1 receptor (Homo sapiens) (UniProt Q02763) | residual activity | 99
N#C/C(=C\c1ccc(O)c(O)c1)C(=O)NCc1ccccc1 | Angiopoietin-1 receptor (Homo sapiens) (UniProt Q02763) | residual activity | 89
Oc1cccc(-c2nc(N3CCOCC3)c3oc4ncccc4c3n2)c1 | Angiopoietin-1 receptor (Homo sapiens) (UniProt Q02763) | residual activity | 80
c1ccc(-c2cnc(Nc3ccc(OCCN4CCCC4)cc3)s2)cc1 | Angiopoietin-1 receptor (Homo sapiens) (UniProt Q02763) | residual activity | 114
O=C1NC(=O)C(c2cn(CCCO)c3ncccc23)=C1c1cnccn1 | Angiopoietin-1 receptor (Homo sapiens) (UniProt Q02763) | residual activity | 95
CC(C)[C@H](CO)Nc1nc(Nc2cc(N)cc(Cl)c2)c2ncn(C(C)C)c2n1 | Angiopoietin-1 receptor (Homo sapiens) (UniProt Q02763) | residual activity | 100

----------
# residual activity per record follows
Target system: Ribosomal protein S6 kinase alpha-4 (Homo sapiens)
Condition notes: at 1 µM

Compound | residual activity, %
O=S(=O)(c1cccc2cnccc12)N1CCCNCC1 | 58
NCCNc1ncc(C(N)=O)c(Nc2cccc(C(F)(F)F)c2)n1 | 81
O=C1Cc2c([nH]c3ccc(Br)cc23)-c2ccccc2N1 | 82
N#C/C(=C\c1ccc(O)c(O)c1)C(=O)NCc1ccccc1 | 86
CCCC(=O)Oc1ccc2[nH]c(C(=O)c3cc4ccccc4[nH]3)cc2c1 | 94
CC(C)c1nn(-c2c(Cl)cccc2Cl)c2nc(Cc3ccc(OCCO)cc3)[nH]c(=O)c12 | 94
O=C1NC(=O)c2c1c1c3ccccc3[nH]c1n1cncc21 | 53
Cn1c2ccccc2c2c3c(c4c5ccccc5n(CCC#N)c4c21)CNC3=O | 2
O=C1C(Cl)=C(N2C(=O)CCC2=O)C(=O)c2ccccc21 | 96
CCCCc1c(-c2ccc(O)cc2)[nH]c2nccnc12 | 90
CCOC(=O)c1c(C)[nH]c(/C=C2\C(=O)Nc3ccccc32)c1C | 87
Fc1ccc(-c2nc3n(c2-c2ccncc2)CCS3)cc1 | 95
O=C1Nc2ccc(Cl)cc2/C1=C/c1cc(Cl)c(O)c(Cl)c1 | 84
O=C(c1cc2cc(O)ccc2[nH]1)c1cc2cc(O)ccc2[nH]1 | 67
O=C(NC(NC(=S)Nc1ccc(F)c([N+](=O)[O-])c1)C(Cl)(Cl)Cl)C(c1ccccc1)c1ccccc1 (configuration not stated) | 95
O=C(O)/C=C/c1cc(Br)c(Br)c(Br)c1Br | 102
CC(C)(C)c1nc2c3ccc(F)cc3c3c(=O)[nH]ccc3c2[nH]1 | 36
COc1ccc(-c2cnc3c(-c4ccsc4)cnn3c2)cc1 | 95
NC(=O)Nc1sc(-c2ccc(F)cc2)cc1C(N)=O | 85
CC(C)(C)n1nc(Cc2cccc3ccccc23)c2c(N)ncnc21 | 95
Nc1ncnc2[nH]nc(Nc3ccc(F)cc3)c12 | 92
Cn1sc(=O)n(Cc2ccccc2)c1=O | 96

----------
Target system: Serine/threonine-protein kinase ULK3 (Homo sapiens) (UniProt Q6PHR2)
Sequence (Q6PHR2 whole entry): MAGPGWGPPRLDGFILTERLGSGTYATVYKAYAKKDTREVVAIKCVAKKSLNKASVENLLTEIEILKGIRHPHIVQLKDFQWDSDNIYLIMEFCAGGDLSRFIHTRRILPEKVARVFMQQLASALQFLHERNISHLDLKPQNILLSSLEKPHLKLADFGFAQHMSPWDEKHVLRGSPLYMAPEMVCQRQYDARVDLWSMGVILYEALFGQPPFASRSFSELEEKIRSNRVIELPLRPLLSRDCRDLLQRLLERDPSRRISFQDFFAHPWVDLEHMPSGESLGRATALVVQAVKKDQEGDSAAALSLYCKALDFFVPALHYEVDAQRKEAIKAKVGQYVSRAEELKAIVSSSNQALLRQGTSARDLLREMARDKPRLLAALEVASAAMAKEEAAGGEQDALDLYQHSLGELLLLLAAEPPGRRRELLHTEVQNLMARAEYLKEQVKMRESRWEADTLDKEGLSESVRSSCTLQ
Condition notes: at 1 µM
# residual activity per record follows

Molecule | Target system | Units of measure | residual activity
Nc1nc(Nc2ccc(S(N)(=O)=O)cc2)nn1C(=O)c1c(F)cccc1F | Serine/threonine-protein kinase ULK3 (Homo sapiens) (UniProt Q6PHR2) | % | 46
O=C1Cc2c([nH]c3ccc([N+](=O)[O-])cc23)-c2ccccc2N1 | Serine/threonine-protein kinase ULK3 (Homo sapiens) (UniProt Q6PHR2) | % | 75
COc1ccc(-c2cnc3c(-c4ccsc4)cnn3c2)cc1 | Serine/threonine-protein kinase ULK3 (Homo sapiens) (UniProt Q6PHR2) | % | 96
O=C1C(Cl)=C(N2C(=O)CCC2=O)C(=O)c2ccccc21 | Serine/threonine-protein kinase ULK3 (Homo sapiens) (UniProt Q6PHR2) | % | 87
NC(=O)Nc1sc(-c2ccc(F)cc2)cc1C(N)=O | Serine/threonine-protein kinase ULK3 (Homo sapiens) (UniProt Q6PHR2) | % | 69
CCCCc1c(-c2ccc(OC)cc2)[nH]c2nccnc12 | Serine/threonine-protein kinase ULK3 (Homo sapiens) (UniProt Q6PHR2) | % | 68
O=C(c1cc2cc(O)ccc2[nH]1)c1cc2cc(O)ccc2[nH]1 | Serine/threonine-protein kinase ULK3 (Homo sapiens) (UniProt Q6PHR2) | % | 73
O=C(NC(NC(=S)Nc1ccc(F)c([N+](=O)[O-])c1)C(Cl)(Cl)Cl)C(c1ccccc1)c1ccccc1 (stereo unspecified) | Serine/threonine-protein kinase ULK3 (Homo sapiens) (UniProt Q6PHR2) | % | 97
CN(C)S(=O)(=O)c1ccc2c(c1)/C(=C/c1cc3c([nH]1)CCCC3)C(=O)N2 | Serine/threonine-protein kinase ULK3 (Homo sapiens) (UniProt Q6PHR2) | % | 11
O=C(O)/C=C/c1cc(Br)c(Br)c(Br)c1Br | Serine/threonine-protein kinase ULK3 (Homo sapiens) (UniProt Q6PHR2) | % | 98
Nc1n[nH]c2nc3ccccc3nc12 | Serine/threonine-protein kinase ULK3 (Homo sapiens) (UniProt Q6PHR2) | % | 87
